Every entry's value here was drawn from patent US7772198B2.

Target: G551D-CFTR (CHO-G551D cells) (Homo sapiens, UniProt P13569, G551D)
Sequence (P13569 whole entry G551D): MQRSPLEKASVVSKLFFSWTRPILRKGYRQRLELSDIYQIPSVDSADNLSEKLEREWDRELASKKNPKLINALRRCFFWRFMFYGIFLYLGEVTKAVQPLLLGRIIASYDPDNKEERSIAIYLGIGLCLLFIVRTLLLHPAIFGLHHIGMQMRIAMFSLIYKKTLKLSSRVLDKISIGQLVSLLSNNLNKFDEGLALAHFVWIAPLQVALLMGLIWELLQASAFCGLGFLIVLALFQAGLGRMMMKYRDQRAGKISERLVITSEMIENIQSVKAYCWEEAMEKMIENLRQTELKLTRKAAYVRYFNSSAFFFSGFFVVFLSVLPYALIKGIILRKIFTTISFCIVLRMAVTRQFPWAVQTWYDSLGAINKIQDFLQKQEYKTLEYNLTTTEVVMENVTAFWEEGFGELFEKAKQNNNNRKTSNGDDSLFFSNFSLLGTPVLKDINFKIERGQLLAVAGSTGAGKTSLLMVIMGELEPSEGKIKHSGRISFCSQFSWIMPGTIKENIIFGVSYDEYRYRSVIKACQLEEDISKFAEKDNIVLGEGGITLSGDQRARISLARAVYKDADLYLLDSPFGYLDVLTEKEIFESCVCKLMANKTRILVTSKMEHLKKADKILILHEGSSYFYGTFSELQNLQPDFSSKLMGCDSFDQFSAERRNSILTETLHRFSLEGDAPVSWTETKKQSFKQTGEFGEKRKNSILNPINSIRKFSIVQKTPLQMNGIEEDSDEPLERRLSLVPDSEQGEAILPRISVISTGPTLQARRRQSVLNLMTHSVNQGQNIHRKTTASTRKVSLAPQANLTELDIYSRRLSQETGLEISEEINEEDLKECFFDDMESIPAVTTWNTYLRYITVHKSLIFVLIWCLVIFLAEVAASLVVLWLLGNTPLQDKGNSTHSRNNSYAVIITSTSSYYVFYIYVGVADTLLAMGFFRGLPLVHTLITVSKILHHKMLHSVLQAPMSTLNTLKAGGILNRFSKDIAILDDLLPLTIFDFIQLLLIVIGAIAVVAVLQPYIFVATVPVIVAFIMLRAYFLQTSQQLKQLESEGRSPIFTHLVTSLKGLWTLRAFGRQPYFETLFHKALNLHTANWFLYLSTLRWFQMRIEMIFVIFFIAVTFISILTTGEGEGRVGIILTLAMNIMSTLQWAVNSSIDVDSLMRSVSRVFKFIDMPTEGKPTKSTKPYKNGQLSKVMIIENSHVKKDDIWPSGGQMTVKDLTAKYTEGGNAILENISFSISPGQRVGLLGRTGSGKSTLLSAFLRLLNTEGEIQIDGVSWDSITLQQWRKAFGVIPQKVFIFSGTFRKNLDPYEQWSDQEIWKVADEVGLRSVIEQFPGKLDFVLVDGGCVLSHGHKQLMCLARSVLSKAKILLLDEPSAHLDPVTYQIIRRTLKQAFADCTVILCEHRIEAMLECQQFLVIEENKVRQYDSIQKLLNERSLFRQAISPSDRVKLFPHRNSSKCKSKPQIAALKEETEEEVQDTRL
Assay: 125I iodide efflux, CHO cells expressing G551D mutated CFTR (CHO-G551D)
Conditions: 10 μM Fsk + 30 μM genistein
Observable: pIC50
Give bare numbers, as −log10 of the molar value.

Example cases with answers are listed next.
{"Molecule": "C[n+]1cn([C@@H]2O[C@H](CO)[C@@H](O)[C@H]2O)c2nc(N)nc([O-])c21 [Compound 8, 7-methylguanosine]", "pIC50": 4.82}
{"Molecule": "CC1(C(=O)O)N=C2C(O)=CC=CN2C(C)(O)C1O (mixture of isomers) [Compound 3, 2-amino-3-hydroxypyridine Adducts]", "pIC50": 4.44}
{"Molecule": "CCCN1C=CC2=NC(C)(C(=O)O)C(O)C(C)(O)N2C1=O (stereo not drawn) [Compound 2, 1-propylcytosine Adducts]", "pIC50": 6.81}
{"Molecule": "CC1(C(=O)O)N=C2c3nc[nH]c3N=CN2C(C)(O)C1O (stereo not drawn) [Compound 5, Adenine Adducts]", "pIC50": 3.96}
{"Molecule": "CC1(C(=O)O)N=C2c3ncn([C@H]4CC(O)[C@@H](CO)O4)c3N=CN2C(C)(O)C1O (stereo in doubt) [Compound 1, 2′-deoxyadenosine Adducts]", "pIC50": 7.37}

# input for lookup
I have this molecule here, Cc1nc2cccc[n+]2c(C)c1[O-] [Compound 6, 2-aminopyridine Derivative] , and I need its recorded pIC50.
7.05

###

Target: wild-type CFTR protein (Calu-3 cells) (Homo sapiens)
Test: iodide efflux, Calu-3 human lung cells naturally expressing wild-type CFTR
Observable: EC50 (nM)
Numbers only, in nM.

Given the entry CCCn1cnc2c1N=CN1C2=N[C@](C)(C(=O)O)[C@@H](O)[C@@]1(C)O (racemic) , what EC50 was observed with wild-type CFTR protein (Calu-3 cells) (Homo sapiens)?
2000

###

Target: wild-type CFTR receptor (CHO-WT cells) (Homo sapiens, UniProt P13569)
Sequence (P13569 whole entry): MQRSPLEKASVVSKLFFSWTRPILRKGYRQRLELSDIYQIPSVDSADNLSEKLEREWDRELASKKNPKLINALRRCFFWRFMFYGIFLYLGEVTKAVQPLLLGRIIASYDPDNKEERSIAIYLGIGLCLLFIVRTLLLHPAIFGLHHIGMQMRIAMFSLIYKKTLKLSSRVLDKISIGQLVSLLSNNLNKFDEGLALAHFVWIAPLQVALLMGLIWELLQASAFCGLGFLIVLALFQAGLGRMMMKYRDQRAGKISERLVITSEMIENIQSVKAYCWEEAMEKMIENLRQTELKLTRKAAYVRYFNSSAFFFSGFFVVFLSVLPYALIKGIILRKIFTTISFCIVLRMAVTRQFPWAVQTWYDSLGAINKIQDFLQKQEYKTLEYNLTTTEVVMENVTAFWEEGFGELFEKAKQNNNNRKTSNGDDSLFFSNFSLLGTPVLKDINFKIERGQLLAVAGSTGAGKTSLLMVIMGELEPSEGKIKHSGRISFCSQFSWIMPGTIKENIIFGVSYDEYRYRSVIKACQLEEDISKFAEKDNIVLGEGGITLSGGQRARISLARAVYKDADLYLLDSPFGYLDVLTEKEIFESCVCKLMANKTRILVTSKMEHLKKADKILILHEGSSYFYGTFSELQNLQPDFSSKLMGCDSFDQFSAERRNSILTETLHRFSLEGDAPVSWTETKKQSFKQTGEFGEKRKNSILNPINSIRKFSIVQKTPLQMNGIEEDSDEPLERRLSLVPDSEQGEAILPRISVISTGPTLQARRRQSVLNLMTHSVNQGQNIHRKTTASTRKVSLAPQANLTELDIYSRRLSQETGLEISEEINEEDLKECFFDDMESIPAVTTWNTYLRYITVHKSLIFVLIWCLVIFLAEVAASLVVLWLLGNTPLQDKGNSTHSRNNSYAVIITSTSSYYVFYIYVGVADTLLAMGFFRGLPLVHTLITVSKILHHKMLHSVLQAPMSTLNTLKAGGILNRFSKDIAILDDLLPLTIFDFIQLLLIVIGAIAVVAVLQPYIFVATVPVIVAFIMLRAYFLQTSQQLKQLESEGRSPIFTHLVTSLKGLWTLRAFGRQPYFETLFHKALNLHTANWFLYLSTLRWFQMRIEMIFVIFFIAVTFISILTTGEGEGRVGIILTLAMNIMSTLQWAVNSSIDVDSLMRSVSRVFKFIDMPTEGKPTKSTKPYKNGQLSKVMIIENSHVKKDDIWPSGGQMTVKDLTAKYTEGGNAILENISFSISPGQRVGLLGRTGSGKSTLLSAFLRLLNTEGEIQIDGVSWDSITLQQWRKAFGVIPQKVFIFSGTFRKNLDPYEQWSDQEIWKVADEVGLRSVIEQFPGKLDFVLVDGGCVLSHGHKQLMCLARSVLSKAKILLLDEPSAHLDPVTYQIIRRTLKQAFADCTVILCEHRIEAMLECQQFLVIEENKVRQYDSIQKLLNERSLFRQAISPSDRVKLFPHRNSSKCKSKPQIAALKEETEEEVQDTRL
Assay: 125I iodide efflux, CHO cells overexpressing wild-type CFTR (CHO-WT)
Details: activators; 1 μM forskolin
Observable: EC50 (nM)
One number for each entry, in nM.

Example cases with answers are listed next.
{"Molecule": "C=CCn1cnc2c1N=CN1C2=NC(C)(C(=O)O)C(O)C1(C)O (mixture of isomers)", "EC50, nM": 7500}
{"Molecule": "CCCn1cnc2c1N=CN1C2=N[C@](C)(C(=O)O)[C@@H](O)[C@@]1(C)O (racemic)", "EC50, nM": 2000}
{"Molecule": "CCCn1cnc2c1N=CN1C2=N[C@](C)(C(=O)O)[C@H](O)[C@@]1(C)O (racemic)", "EC50, nM": 3000}

# input for lookup
I have this molecule here, CCCn1cnc2c1N=CN1C2=NC(C)(C(=O)O)C(O)C1(C)O (mixture of isomers) , and I need its recorded EC50.
2000

###

Task for the reader: assign each of the following compounds its reported IC50.
Target: wild-type CFTR protein (Calu-3 cells) (Homo sapiens, UniProt P13569)
Sequence (P13569 whole entry): as the sequence (P13569 whole entry) above
Give bare numbers, in µM.

Example cases with answers are listed next.
{"Compound": "CC1(C(=O)O)N=C2C(O)=CC=CN2C(C)(O)C1O (mixture of isomers) [Compound 3, 2-amino-3-hydroxypyridine Adducts]", "Unit of measure": "µM", "IC50": 11}
{"Compound": "CC1(C(=O)O)N=C2c3ncn([C@H]4CC(O)[C@@H](CO)O4)c3N=CN2C(C)(O)C1O (stereo in doubt)", "Unit of measure": "µM", "IC50": "9.3e-05"}
{"Compound": "CCCN1C=CC2=NC(C)(C(=O)O)C(O)C(C)(O)N2C1=O (stereo not shown)", "Unit of measure": "µM", "IC50": 0.002}

# input for lookup
I have this compound here, CC1(C(=O)O)N=C2c3nc[nH]c3N=CN2C(C)(O)C1O (stereo not shown) , and I need its recorded IC50.
12
